- System: recombinant NL4-3 virus
- Protocol Text: HIV cell culture assay (antiviral activity, luciferase readout in infected MT-2 cells)
- Type: cell-based
- Measurement Parameters: Human immunodeficiency virus 1, NL43, MT2
Experimental Readout: pEC50
Keep in mind that pEC50 stands for -log10 of concentration in molar terms.

Worked examples, 7 molecules total:
Cn1nc(COc2ccc3c(=O)n(-c4ccc(Cl)c5c(NS(C)(=O)=O)nn(C)c45)c([C@H](Cc4cc(F)cc(F)c4)NC(=O)Cn4nc(C(F)F)c5c4C(F)(F)[C@@H]4C[C@H]54)nc3n2)cc1C(F)(F)F (atropisomer, axis not shown; (P)) [Example 13]    10.24
Cn1cc(CCOc2ccc3c(=O)n(-c4ccc(Cl)c5c(NS(C)(=O)=O)nn(C)c45)c([C@H](Cc4cc(F)cc(F)c4)NC(=O)Cn4nc(C(F)F)c5c4C(F)(F)[C@@H]4C[C@H]54)nc3n2)cn1 (atropisomer, axis not shown; (P)) [Example 12]    9.85
Cn1nc(NS(C)(=O)=O)c2c(Cl)ccc(-n3c([C@H](Cc4cc(F)cc(F)c4)NC(=O)Cn4nc(C(F)F)c5c4C(F)(F)[C@@H]4C[C@H]54)nc4nc(OCc5ccn(CC(F)(F)F)n5)ccc4c3=O)c21 (atropisomer, axis not shown; (P)) [Example 24]    10.24
Cn1nc(NS(C)(=O)=O)c2c(Cl)ccc(-n3c([C@H](Cc4cc(F)cc(F)c4)NC(=O)Cn4nc(C(F)F)c5c4C(F)(F)[C@@H]4C[C@H]54)nc4nc(OCc5cccc(C(F)(F)F)n5)ccc4c3=O)c21 (atropisomer, axis not shown; (P)) [Example 22]    10.26
Cc1cnc(COc2ccc3c(=O)n(-c4ccc(Cl)c5c(NS(C)(=O)=O)nn(C)c45)c([C@H](Cc4cc(F)cc(F)c4)NC(=O)Cn4nc(C(F)F)c5c4C(F)(F)[C@@H]4C[C@H]54)nc3n2)nc1 (atropisomer, axis not shown; (P)) [Example 8]    10.31
Cn1nc(NS(C)(=O)=O)c2c(Cl)ccc(-n3c([C@H](Cc4cc(F)cc(F)c4)NC(=O)Cn4nc(C(F)F)c5c4C(F)(F)[C@@H]4C[C@H]54)nc4nc(OCCNCC(F)(F)F)ccc4c3=O)c21 (atropisomer, axis not shown; (P)) [Example 25]    10.24
Cn1nc(NS(C)(=O)=O)c2c(Cl)ccc(-n3c([C@H](Cc4cc(F)cc(F)c4)NC(=O)Cn4nc(C(F)F)c5c4C(F)(F)[C@@H]4C[C@H]54)nc4nc(Oc5ccc(F)cc5F)ccc4c3=O)c21 (atropisomer, axis not shown; (P)) [Example 36]    10.09

Could you now look at the following molecule, please?
molecule Cn1nc(NS(C)(=O)=O)c2c(Cl)ccc(-n3c([C@H](Cc4cc(F)cc(F)c4)NC(=O)Cn4nc(C(F)F)c5c4C(F)(F)[C@@H]4C[C@H]54)nc4nc(OCCOC5CC5(F)F)ccc4c3=O)c21 (some centres unmarked) [Example 34] , pEC50 observed: 10.46

* * *

- Protocol Text: Compound cytotoxicity, XTT-based colorimetric assay
- Format: cell-based
- Measurement Parameters: human; uninfected MT2 cells, day 4, XTT assay
Experimental Readout: CC50 at 4 day

# count of solved cases: 5
Cn1nc(NS(C)(=O)=O)c2c(Cl)ccc(-n3c([C@H](Cc4cc(F)cc(F)c4)NC(=O)Cn4nc(C(F)F)c5c4C(F)(F)[C@@H]4C[C@H]54)nc4nc(Oc5ccc(F)cc5F)ccc4c3=O)c21 (atropisomer, axis not shown; (P)) [Example 36]    > 0.1 µM
Cc1ccnc(COc2ccc3c(=O)n(-c4ccc(Cl)c5c(NS(C)(=O)=O)nn(C)c45)c([C@H](Cc4cc(F)cc(F)c4)NC(=O)Cn4nc(C(F)F)c5c4C(F)(F)[C@@H]4C[C@H]54)nc3n2)n1 (atropisomer, axis not shown; (P)) [Example 7]    > 0.5 µM
Cn1nc(NS(C)(=O)=O)c2c(Cl)ccc(-n3c([C@H](Cc4cc(F)cc(F)c4)NC(=O)Cn4nc(C(F)F)c5c4C(F)(F)[C@@H]4C[C@H]54)nc4nc(OCCC(C)(C)C(F)(F)F)ccc4c3=O)c21 (atropisomer, axis not shown; (P)) [Example 4]    > 0.2 µM
CN(CCCOc1ccc2c(=O)n(-c3ccc(Cl)c4c(NS(C)(=O)=O)nn(C)c34)c([C@H](Cc3cc(F)cc(F)c3)NC(=O)Cn3nc(C(F)F)c4c3C(F)(F)[C@@H]3C[C@H]43)nc2n1)CC(F)(F)F (atropisomer, axis not shown; (P)) [Example 11]    > 0.1 µM
Cn1nc(NS(C)(=O)=O)c2c(Cl)ccc(-n3c([C@H](Cc4cc(F)cc(F)c4)NC(=O)Cn4nc(C(F)F)c5c4C(F)(F)[C@@H]4C[C@H]54)nc4nc(OCC(F)(F)C(F)(F)C(F)(F)C(F)(F)F)ccc4c3=O)c21 (atropisomer, axis not shown; (P)) [Example 40]    > 0.1 µM

CC50 at 4 day measured on Cn1nc(NS(C)(=O)=O)c2c(Cl)ccc(-n3c([C@H](Cc4cc(F)cc(F)c4)NC(=O)Cn4nc(C(F)F)c5c4C(F)(F)[C@@H]4C[C@H]54)nc4nc(OCC(F)(F)C(F)(F)F)ccc4c3=O)c21 (atropisomer, axis not shown; (P)) [Example 18] = > 0.1 µM

Lab note: measured CC50 at 4 day of Cn1nc(COc2ccc3c(=O)n(-c4ccc(Cl)c5c(NS(C)(=O)=O)nn(C)c45)c([C@H](Cc4cc(F)cc(F)c4)NC(=O)Cn4nc(C(F)F)c5c4C(F)(F)[C@@H]4C[C@H]54)nc3n2)cc1C(F)(F)F (atropisomer, axis not shown; (P)) [Example 13] was > 0.1 µM

* * *

- System: recombinant NL4-3 virus
- Protocol Text: HIV cell culture assay (antiviral activity, luciferase readout in infected MT-2 cells)
- Format: cell-based
- Measurement Parameters: Human immunodeficiency virus 1, NL43, MT2
// values below are reported pEC50
Kindly note that pEC50 refers to -log10 of the concentration in mol/L and answer with the value alone.

CN(CCOc1ccc2c(=O)n(-c3ccc(Cl)c4c(NS(C)(=O)=O)nn(C)c34)c([C@H](Cc3cc(F)cc(F)c3)NC(=O)Cn3nc(C(F)F)c4c3C(F)(F)[C@@H]3C[C@H]43)nc2n1)S(C)(=O)=O (atropisomer, axis not shown; (P))    10.39

The reported value for COC1(CCOc2ccc3c(=O)n(-c4ccc(Cl)c5c(NS(C)(=O)=O)nn(C)c45)c([C@H](Cc4cc(F)cc(F)c4)NC(=O)Cn4nc(C(F)F)c5c4C(F)(F)[C@@H]4C[C@H]54)nc3n2)CCC1 (atropisomer, axis not shown; (P)) in terms of pEC50 is 10.52

Record Cn1nc(NS(C)(=O)=O)c2c(Cl)ccc(-n3c([C@H](Cc4cc(F)cc(F)c4)NC(=O)Cn4nc(C(F)F)c5c4C(F)(F)[C@@H]4C[C@H]54)nc4nc(OC5CCC(F)(F)CC5)ccc4c3=O)c21 (atropisomer, axis not shown; (P)) , field pEC50: 10.27
